Consider the following molecules and their measured half-life readings.
assay: Half life in rat; format: ADME, organism-based; settings: in vivo
// note: answer is a bare numeric in h

// worked examples, half-life included
{"columns": ["ITEM SMILES", "READOUT", "UNIT LABEL", "RECORDED NUMBER"],
 "data": [
  ["Cc1ccc2c(-c3nnc(SCCCN4CCc5cc6c(cc5CC4)C(=O)N(C(C)C)C6)n3C)cccc2n1", "half-life", "h", 1.5],
  ["Cc1ccc2c(-c3nnc(SCCCN4CCc5cc6nc(C)sc6cc5CC4)n3C)cccc2n1", "half-life", "h", 2.2],
  ["Cc1ccc2c(-c3nnc(SCCCN4CCc5cc6nc(N(C)C)oc6cc5CC4)n3C)cccc2n1", "half-life", "h", 1.6],
  ["CCc1nc2cc3c(cc2o1)CCN(CCCSc1nnc(-c2cccc4nc(C)ccc24)n1C)CC3", "half-life", "h", 1.6],
  ["Cc1ccc2c(-c3nnc(SCCCN4CCc5cc6onc(C)c6cc5CC4)n3C)cccc2n1", "half-life", "h", 1.3],
  ["Cc1ccc2c(-c3nnc(SCCCN4CCc5cc6c(cc5CC4)N(S(C)(=O)=O)CCO6)n3C)cccc2n1", "half-life", "h", 1.2]
]}

# input for lookup
// query Check the records and state half-life for "Cc1ccc2c(-c3nnc(SCCCN4CCc5cc6nc(C)oc6cc5CC4)n3C)cccc2n1"
// result 1.7

Values from ChEMBL document CHEMBL1142271
